target: T1, CD71 apical domain (UniProt P02786 189-383, limits assumed); test: solution ELISA
T1 construct: domain: Apical domain
T1 sequence (P02786 189-383 limits assumed): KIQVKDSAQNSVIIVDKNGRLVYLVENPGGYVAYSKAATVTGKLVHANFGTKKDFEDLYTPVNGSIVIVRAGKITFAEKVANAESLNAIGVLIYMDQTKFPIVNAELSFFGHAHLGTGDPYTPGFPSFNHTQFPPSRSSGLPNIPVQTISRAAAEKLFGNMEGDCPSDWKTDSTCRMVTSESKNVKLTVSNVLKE
This listing pairs binders with measured Apical domain, RLU.
// return the numeric value with its unit appended

Bench note: what Apical domain, RLU did SEQ ID NO 140 (designed binder, FN3 domain) MLPAPKNLVVSRVTEDSARLSWTAPDAAFDSFFIGYLEPQPPGEAIQLEVPGSERSYDLTGLKPGTEYNVTIQGVKGGFPSMPLSAIFTT show?
317000 RLU

Follow-up entry: SEQ ID NO 146 (designed binder, FN3 domain) MLPAPKNLVVSRVTEDSARLSWTAPDAAFDSFYIAYAEPRPDGEAITLHVPGSERSYDLTGLKPGTEYSVLIHGVKGGLLSSPLSAIFTT
5.72e+06 RLU

// provenance: patent US20220332795A1
